All figures here come from patent US7199113B2.

target: human recombinant TF/VIIa complex (lipidated) (Homo sapiens); construct: Truncated recombinant human tissue factor (e.g. composed of 243 amino acids) is expressed in E. coli; host or cells: E. coli (TF); assay: TF/VIIa-dependent FX activation assay; type: biochemical; conditions: TF/VIIa, FX and compound added simultaneously; FX 5 nM
observation.type: pIC50
Give bare numbers, as −log10 of the molar value.

Look up pIC50 with human recombinant TF/VIIa complex (lipidated) (Homo sapiens) for this compound: `O=P(O)(O)C(CNc1cccc(O)c1)P(=O)(O)O` 4.74

====

target: human recombinant TF/VIIa complex (lipidated) (Homo sapiens, UniProt P13726); construct: Truncated recombinant human tissue factor (e.g. composed of 243 amino acids) is expressed in E. coli; host or cells: E. coli (TF); assay: TF/VIIa-dependent FX activation assay; assay type: biochemical; details: compound preincubated with TF/VIIa 15 minutes at 37° C. prior to FX; FX 5 nM
Sequence (P13726 33-275 limits assumed): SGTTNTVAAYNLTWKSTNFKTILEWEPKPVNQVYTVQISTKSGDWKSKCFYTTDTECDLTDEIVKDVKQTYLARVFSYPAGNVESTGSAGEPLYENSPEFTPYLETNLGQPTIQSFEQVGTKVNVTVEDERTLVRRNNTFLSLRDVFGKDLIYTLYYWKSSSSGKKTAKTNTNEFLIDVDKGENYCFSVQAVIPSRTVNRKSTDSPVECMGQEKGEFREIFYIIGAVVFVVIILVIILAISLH
Sequence (P08709 61-212 partner limits assumed): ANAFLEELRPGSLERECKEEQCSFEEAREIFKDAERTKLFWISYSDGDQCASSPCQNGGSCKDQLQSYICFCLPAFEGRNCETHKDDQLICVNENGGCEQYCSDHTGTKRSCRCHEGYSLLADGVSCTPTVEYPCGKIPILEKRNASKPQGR
Sequence (P08709 213-466 partner limits assumed): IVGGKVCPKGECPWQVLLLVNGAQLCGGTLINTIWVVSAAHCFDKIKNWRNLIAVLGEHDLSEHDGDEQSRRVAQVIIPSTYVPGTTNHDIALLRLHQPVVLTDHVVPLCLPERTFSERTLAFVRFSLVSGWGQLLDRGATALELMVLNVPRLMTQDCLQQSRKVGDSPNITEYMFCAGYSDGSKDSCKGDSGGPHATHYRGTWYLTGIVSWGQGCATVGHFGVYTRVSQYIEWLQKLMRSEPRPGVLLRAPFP
observation.type: IC50 (µM)
One number for each entry, in µM.

Please report the recorded IC50 for O=P(O)(O)C(CNc1cccc(O)c1)P(=O)(O)O [Compound 1] . 8.3
